Data provenance is patent US3947411A.

The following compounds are listed with their measured Inhibition Area at μg, Staph. aureus values.
- Tested on: Staphylococcus aureus
- Procedure text: Agar well inhibition zone test against bacteria, Staphylococcus aureus (Table III)
- Cond: quantity per well giving inhibition zone (500, 50, 5 μg tested); nutrient agar, 37°, 24 hours
Number only, in µg; omit the unit.

Please review the entries below; each comes with its answer.
{"Compound": "CC(N1CCN(CCN2CCCC2)CC1)C(O)(Cc1ccccc1)Cc1ccccc1 (stereo not drawn)", "Metric name": "Inhibition Area at μg, Staph. aureus", "Obs value": 50}
{"Compound": "CC1CCN(CCN2CCN(C(C)C(O)(Cc3ccccc3)Cc3ccccc3)CC2)CC1 (stereo not drawn)", "Metric name": "Inhibition Area at μg, Staph. aureus", "Obs value": 500}
{"Compound": "CC(N1CCN(CCO)CC1)C(O)(Cc1ccc(Cl)cc1)Cc1ccc(Cl)cc1 (stereo not drawn)", "Metric name": "Inhibition Area at μg, Staph. aureus", "Obs value": 5}
{"Compound": "CC(C(=Cc1ccccc1)Cc1ccccc1)N1CCN(CCN2CCN(C(C)c3ccccc3)CC2)CC1 (stereo not drawn)", "Metric name": "Inhibition Area at μg, Staph. aureus", "Obs value": 5}
{"Compound": "CN1CCN(CCCCCCN2CCN(CCC(=Cc3ccccc3)Cc3ccccc3)CC2)CC1", "Metric name": "Inhibition Area at μg, Staph. aureus", "Obs value": 500}
{"Compound": "CC(C(=Cc1ccccc1)Cc1ccccc1)N1CCN(CCN2CCCC2)CC1 (stereo not drawn)", "Metric name": "Inhibition Area at μg, Staph. aureus", "Obs value": 50}

Kindly review the next compound as well.
Q) Field request: Inhibition Area at μg, Staph. aureus | item: CC(N1CCN(CCN2CCN(c3ccccc3)CC2)CC1)C(O)(Cc1ccccc1)Cc1ccccc1 (stereo not drawn)
A) 50

---

- Procedure text: Solubility in water
- Type: physicochemical
- Cond: hydrochlorides or oxalates, read-out: solubilities (in water)
The following molecules are listed with their measured solubility values.
Number only, in mg/mL; omit the unit.

Please review the entries below; each comes with its answer.
{"Molecule": "CC(C(=Cc1ccccc1)Cc1ccccc1)N1CCN(CCN2CCCC2)CC1 (stereo not shown)", "solubility [mg/mL]": 100}
{"Molecule": "CC(N1CCN(Cc2ccccc2)CC1)C(O)(Cc1ccccc1)Cc1ccccc1 (stereo not shown)", "solubility [mg/mL]": 10}
{"Molecule": "CC(N1CCNCC1)C(O)(Cc1ccccc1)Cc1ccccc1 (stereo not shown)", "solubility [mg/mL]": 10}

Q) Field request: solubility | item: CC(N1CCN(CCN(C)Cc2ccccc2)CC1)C(O)(Cc1ccccc1)Cc1ccccc1 (stereo not shown)
A) 100

Q) Field request: solubility | item: C(=C(CCN1CCN(CCN2CCCCC2)CC1)Cc1ccccc1)c1ccccc1
A) 100

Q) Field request: solubility | item: CNCCN1CCN(C(C)C(=Cc2ccccc2)Cc2ccccc2)CC1 (stereo not shown)
A) 100

Q) Field request: solubility | item: CCN(CCN1CCN(C(C)C(O)(Cc2ccccc2)Cc2ccccc2)CC1)Cc1ccccc1 (stereo not shown)
A) 100

---

The following compounds are listed with their measured Inhibition Area at μg, Cand. albicans values.
- Test system: Candida albicans
- Procedure text: Agar well inhibition zone test against fungi, Candida albicans (Table II)
- Cond: quantity per well giving inhibition zone (500, 50, 5 μg tested); Sabouraud agar, 28°, 48 hours
Number only, in µg; omit the unit.

Please review the entries below; each comes with its answer.
{"Compound": "OC(Cc1ccccc1)(Cc1ccccc1)CN1CCN(CCN2CCCCC2)CC1 [LIX]", "Obs value": 500}
{"Compound": "CCN(CC)CCN1CCN(C(C)C(=Cc2ccccc2)Cc2ccccc2)CC1 (centres unmarked) [XXVII]", "Obs value": 5}

Q) Field request: Inhibition Area at μg, Cand. albicans | item: CC(N1CCN(CCN2CCCCC2)CC1)C(O)(Cc1ccccc1)Cc1ccccc1 (centres unmarked) [IV]
A) 50

Q) Field request: Inhibition Area at μg, Cand. albicans | item: CC(C(=Cc1ccccc1)Cc1ccccc1)N1CCN(CCN2CCCC2)CC1 (centres unmarked) [XXIX]
A) 50

Q) Field request: Inhibition Area at μg, Cand. albicans | item: CC(N1CCN(CCO)CC1)C(O)(Cc1ccccc1)Cc1ccccc1 (centres unmarked) [XLVI]
A) 500

Q) Field request: Inhibition Area at μg, Cand. albicans | item: CC1CN(CCN2CCN(C(C)C(=Cc3ccccc3)Cc3ccccc3)CC2)CCO1 (centres unmarked) [XXXII]
A) 500

Q) Field request: Inhibition Area at μg, Cand. albicans | item: CC(N1CCN(CCCN2CCCCC2)CC1)C(O)(Cc1ccccc1)Cc1ccccc1 (centres unmarked) [XIX]
A) 5

Q) Field request: Inhibition Area at μg, Cand. albicans | item: CC(C(=Cc1ccc(Cl)cc1)Cc1ccc(Cl)cc1)N1CCN(CCN2CCN(C)CC2)CC1 (centres unmarked) [XLII]
A) 5

Q) Field request: Inhibition Area at μg, Cand. albicans | item: CNCCCCCCN1CCN(C(C)C(=Cc2ccccc2)Cc2ccccc2)CC1 (centres unmarked) [XLI]
A) 5

Q) Field request: Inhibition Area at μg, Cand. albicans | item: CC(C(=Cc1ccccc1)Cc1ccccc1)N1CCN(CCN(C)C)CC1 (centres unmarked) [XXVI]
A) 5

Q) Field request: Inhibition Area at μg, Cand. albicans | item: CC(N1CCN(CCN(C)Cc2ccccc2)CC1)C(O)(Cc1ccccc1)Cc1ccccc1 (centres unmarked) [XV]
A) 50

Q) Field request: Inhibition Area at μg, Cand. albicans | item: CCN(CC)CCN1CCN(C(C)C(O)(Cc2ccccc2)Cc2ccccc2)CC1 (centres unmarked) [II]
A) 50

---

- Tested on: Candida albicans
- Procedure text: Agar well inhibition zone test against fungi, Candida albicans (Table II)
- Cond: quantity per well giving inhibition zone (500, 50, 5 μg tested); Sabouraud agar, 28°, 48 hours
Metric name: Inhibition Area at μg, Cand. albicans (µg)
Number only, in µg; omit the unit.

Please review the entries below; each comes with its answer.
{"Molecule": "CCCCCCCCN1CCN(CCCCCCN2CCN(C(C)C(=Cc3ccccc3)Cc3ccccc3)CC2)CC1 (stereo not shown)", "Tested target": "Candida albicans", "Inhibition Area at μg, Cand. albicans / µg": 5}
{"Molecule": "CC1CCCCN1CCN1CCN(C(C)C(=Cc2ccccc2)Cc2ccccc2)CC1 (stereo not shown)", "Tested target": "Candida albicans", "Inhibition Area at μg, Cand. albicans / µg": 5}
{"Molecule": "CC(N1CCN(CCN2CCCC2)CC1)C(O)(Cc1ccccc1)Cc1ccccc1 (stereo not shown)", "Tested target": "Candida albicans", "Inhibition Area at μg, Cand. albicans / µg": 50}
{"Molecule": "CC(C(=Cc1ccccc1Cl)Cc1ccccc1Cl)N1CCN(CCN2CCN(C)CC2)CC1 (stereo not shown)", "Tested target": "Candida albicans", "Inhibition Area at μg, Cand. albicans / µg": 5}
{"Molecule": "Clc1ccc(C=C(CCN2CCN(CCN3CCCCC3)CC2)Cc2ccc(Cl)cc2)cc1", "Tested target": "Candida albicans", "Inhibition Area at μg, Cand. albicans / µg": 5}
{"Molecule": "CC1CCN(CCN2CCN(C(C)C(O)(Cc3ccccc3)Cc3ccccc3)CC2)CC1 (stereo not shown)", "Tested target": "Candida albicans", "Inhibition Area at μg, Cand. albicans / µg": 50}
{"Molecule": "CC(N1CCN(Cc2ccccn2)CC1)C(O)(Cc1ccccc1)Cc1ccccc1 (stereo not shown)", "Tested target": "Candida albicans", "Inhibition Area at μg, Cand. albicans / µg": 500}
{"Molecule": "CC(N1CCN(C)CC1)C(O)(Cc1ccccc1)Cc1ccccc1 (stereo not shown)", "Tested target": "Candida albicans", "Inhibition Area at μg, Cand. albicans / µg": 50}
{"Molecule": "CC(N1CCN(CCO)CC1)C(O)(Cc1ccc(Cl)cc1)Cc1ccc(Cl)cc1 (stereo not shown)", "Tested target": "Candida albicans", "Inhibition Area at μg, Cand. albicans / µg": 5}
{"Molecule": "CC(c1ccccc1)N1CCN(CCN2CCN(C(C)C(O)(Cc3ccccc3)Cc3ccccc3)CC2)CC1 (stereo not shown)", "Tested target": "Candida albicans", "Inhibition Area at μg, Cand. albicans / µg": 500}

Q) Field request: Inhibition Area at μg, Cand. albicans | item: CC(C(=Cc1ccccc1)Cc1ccccc1)N1CCN(CCN2CCOCC2)CC1 (stereo not shown)
A) 500

Q) Field request: Inhibition Area at μg, Cand. albicans | item: CC1CN(CCN2CCN(C(C)C(O)(Cc3ccccc3)Cc3ccccc3)CC2)CCO1 (stereo not shown)
A) 500

Q) Field request: Inhibition Area at μg, Cand. albicans | item: CC1CCCN(CCN2CCN(C(C)C(O)(Cc3ccccc3)Cc3ccccc3)CC2)C1 (stereo not shown)
A) 50

Q) Field request: Inhibition Area at μg, Cand. albicans | item: CC(N1CCN(CCN2CCN(c3ccccc3)CC2)CC1)C(O)(Cc1ccccc1)Cc1ccccc1 (stereo not shown)
A) 50

Q) Field request: Inhibition Area at μg, Cand. albicans | item: CC(C(=Cc1ccccc1)Cc1ccccc1)N1CCN(CCN2CCN(CCc3ccccc3)CC2)CC1 (stereo not shown)
A) 5

Q) Field request: Inhibition Area at μg, Cand. albicans | item: CC(C(=Cc1ccccc1)Cc1ccccc1)N1CCN(CCN2CCN(C)CC2)CC1 (stereo not shown)
A) 50

Q) Field request: Inhibition Area at μg, Cand. albicans | item: CC(N1CCN(CCN2CCOCC2)CC1)C(O)(Cc1ccccc1)Cc1ccccc1 (stereo not shown)
A) 50
